target: Met kinase domain (GST fusion protein) (Homo sapiens); construct: Purified GST fusion protein containing the Met kinase domain; assay: Met transphosphorylation assay (ELISA, poly(glu-tyr) substrate); format: biochemical; conditions: Table 2; read-out: Met IC50;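 note: Cell-free ELISA with plate-bound poly(Glu:Tyr 4:1) phosphorylated by GST-fused Met kinase domain plus ATP and Mn2+, phosphotyrosine detected by anti-phosphotyrosine antibody with HRP and ABTS read-out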
Sequence (P08581 1078-1345 limits assumed): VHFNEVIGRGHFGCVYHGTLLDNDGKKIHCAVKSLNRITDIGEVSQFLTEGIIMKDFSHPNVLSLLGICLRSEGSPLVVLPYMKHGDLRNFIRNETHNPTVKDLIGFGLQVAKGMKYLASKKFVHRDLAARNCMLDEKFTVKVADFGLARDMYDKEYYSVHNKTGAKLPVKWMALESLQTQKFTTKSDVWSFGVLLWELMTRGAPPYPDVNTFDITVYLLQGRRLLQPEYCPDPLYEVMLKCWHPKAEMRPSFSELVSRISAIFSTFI
Consider the following compounds; for each one, report its pIC50.
# reply with the number alone; pIC50 is -log10 of concentration in mol/L

The reported pIC50 value, Met kinase domain (GST fusion protein) (Homo sapiens), for "CC(=O)N1CCN(CCS(=O)(=O)Nc2cccc(-c3cnc(N)c(OCc4c(F)ccc(F)c4Cl)c3)c2)CC1" reads 6.17

Observed pIC50, Met kinase domain (GST fusion protein) (Homo sapiens), "Nc1ncc(-c2cccc(NS(=O)(=O)CCN3CCCCC3)c2)cc1OCc1c(F)ccc(F)c1Cl" : 5.79

For "CC(=O)N1CCN(C(=O)c2ccc(-c3cnc(N)c(OCc4ccc(F)cc4Cl)c3)cc2)CC1" on Met kinase domain (GST fusion protein) (Homo sapiens), measured pIC50 was 5.28

# value of pIC50, Met kinase domain (GST fusion protein) (Homo sapiens), item CC(Oc1cc(-c2ccc(OCCN3CCOCC3)cc2)cnc1N)c1c(F)ccc(F)c1Cl (stereo not drawn) = 6.64

Tested system Met kinase domain (GST fusion protein) (Homo sapiens); pIC50 recorded for "Nc1ncc(-c2cccc(N3CCCC3)c2)cc1OCc1c(F)ccc(F)c1Cl" was 5.40

Record for "CN1CCN(C(=O)c2ccc(-c3cnc(N)c(OCc4ccccc4C(F)(F)F)c3)cc2)CC1" under target or system Met kinase domain (GST fusion protein) (Homo sapiens): pIC50 reported as 5.79

Measured on Met kinase domain (GST fusion protein) (Homo sapiens), CCN(CC)CCS(=O)(=O)Nc1ccc(-c2cnc(N)c(OC(C)c3c(F)ccc(F)c3Cl)c2)cc1 (stereo not drawn) has a documented pIC50 of 7.02

Entry "Nc1ncc(-c2ccc(NS(=O)(=O)CCNC3CC3)cc2)cc1OCc1c(F)ccc(F)c1Cl" under Met kinase domain (GST fusion protein) (Homo sapiens) had pIC50 of 7.09

Considering "Nc1ncc(-c2ccc(N3CCCS3(=O)=O)cc2)cc1OCc1c(Cl)cccc1Cl" , its pIC50 with Met kinase domain (GST fusion protein) (Homo sapiens) was recorded as 7.17

Param item: CC(Oc1cc(-c2ccc(NS(=O)(=O)CCNCC3CC3)cc2)cnc1N)c1c(Cl)ccc(F)c1Cl (stereo not drawn) ; param system: Met kinase domain (GST fusion protein) (Homo sapiens); output pIC50: 7.12

Reading of pIC50 for CC(Oc1cc(-c2ccc(OCC3CCCN(C)C3)cc2)cnc1N)c1c(Cl)ccc(F)c1Cl (stereo not drawn) with Met kinase domain (GST fusion protein) (Homo sapiens): 7.37

Lab note: compound CC(Oc1cc(-c2cccc(C(=O)N3CCC(N4CCCC4)CC3)c2)cnc1N)c1c(Cl)ccc(F)c1Cl (stereo not drawn) tested on Met kinase domain (GST fusion protein) (Homo sapiens); recorded pIC50 was 7.15

Met kinase domain (GST fusion protein) (Homo sapiens) pIC50 of "CC(=O)N1CCN(CCNC(=O)c2cccc(-c3cnc(N)c(OCc4c(F)ccc(F)c4Cl)c3)c2)CC1" is 7.00

Value sought: pIC50, system Met kinase domain (GST fusion protein) (Homo sapiens), item CC(Oc1cc(-c2cccc(C(=O)N3CCN(C)CC3)c2)cnc1N)c1c(F)ccc(F)c1Cl (stereo not drawn) . Result: 6.72

Met kinase domain (GST fusion protein) (Homo sapiens) assay, compound "Nc1ncc(-c2ccc(C(=O)N3CC[C@H](N)C3)cc2)cc1OCc1c(F)ccc(F)c1Cl" , recorded pIC50 = 7.02
